Target: T1, recombinant purified cyno IL-12 p70 (cynomolgus monkey)
T1 chain 1: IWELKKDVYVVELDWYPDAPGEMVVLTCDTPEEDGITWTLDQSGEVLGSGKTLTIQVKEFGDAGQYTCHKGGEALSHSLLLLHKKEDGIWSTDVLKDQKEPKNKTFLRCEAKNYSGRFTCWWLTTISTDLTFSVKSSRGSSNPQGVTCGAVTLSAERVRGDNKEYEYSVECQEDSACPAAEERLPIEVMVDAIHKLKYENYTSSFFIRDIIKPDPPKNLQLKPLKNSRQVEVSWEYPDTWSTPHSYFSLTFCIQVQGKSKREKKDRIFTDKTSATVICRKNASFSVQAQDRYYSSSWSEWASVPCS
T1 chain 2: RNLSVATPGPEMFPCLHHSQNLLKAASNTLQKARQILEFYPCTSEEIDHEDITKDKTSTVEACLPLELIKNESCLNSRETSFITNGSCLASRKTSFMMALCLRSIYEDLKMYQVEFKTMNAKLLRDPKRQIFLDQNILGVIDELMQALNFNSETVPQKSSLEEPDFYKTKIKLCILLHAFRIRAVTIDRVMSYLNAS
Assay: cell-based or functional assay
Tag: fulfilled if measured Av. IC50 (nM) Cyno IL-12, PHA blast assay is not below 1 nM, not fulfilled if it is.

binder	group
anti-IL-12p40 hybrid antibody 1D4.4 (antibody, human IgG1, kappa, L234A L235A, V domains shown) VH: EVTLRESGPALVKPTQTLTLTCTFSGFSLSKSVMGVSWIRQPPGKALEWLAHIYWDDDKYYNPSLKSRLTISKDTSKNQVVLTMTNMDPVDTATYYCARRGIRSAMDYWGQGTTVTVSS VL: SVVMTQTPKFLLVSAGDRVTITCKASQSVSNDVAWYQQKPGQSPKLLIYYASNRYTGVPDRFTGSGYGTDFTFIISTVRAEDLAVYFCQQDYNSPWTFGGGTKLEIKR	fulfilled
anti-IL-12p40 hybrid antibody 1A6.7 (antibody, human IgG1, kappa, L234A L235A, V domains shown) VH: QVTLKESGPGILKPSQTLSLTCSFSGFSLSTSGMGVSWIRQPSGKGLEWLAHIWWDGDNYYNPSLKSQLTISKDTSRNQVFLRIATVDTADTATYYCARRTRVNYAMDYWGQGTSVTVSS VL: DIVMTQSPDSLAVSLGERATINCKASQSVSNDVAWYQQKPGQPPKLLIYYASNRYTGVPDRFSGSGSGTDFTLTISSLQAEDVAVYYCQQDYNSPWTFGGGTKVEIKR	not fulfilled
anti-IL-12p40 hybrid antibody 1D4.5 (antibody, human IgG1, kappa, L234A L235A, V domains shown) VH: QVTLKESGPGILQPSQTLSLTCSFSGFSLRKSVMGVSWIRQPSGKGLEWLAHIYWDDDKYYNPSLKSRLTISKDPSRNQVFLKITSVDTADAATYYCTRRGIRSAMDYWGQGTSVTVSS VL: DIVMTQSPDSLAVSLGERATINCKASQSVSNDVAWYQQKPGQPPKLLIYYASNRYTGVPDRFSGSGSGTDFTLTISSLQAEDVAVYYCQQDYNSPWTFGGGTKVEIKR	not fulfilled
anti-IL-12p40 hybrid antibody 1A6.4 (antibody, human IgG1, kappa, L234A L235A, V domains shown, Hybrid: chimeric murine H chain paired with CDR-grafted L chain) VH: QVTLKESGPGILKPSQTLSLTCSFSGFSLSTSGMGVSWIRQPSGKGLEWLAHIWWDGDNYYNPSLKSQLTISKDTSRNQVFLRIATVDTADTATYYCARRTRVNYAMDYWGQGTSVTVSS VL: EIVMTQSPATLSVSPGERATLSCKASQSVSNDVAWYQQKPGQAPRLLIYYASNRYTGIPARFSGSGSGTEFTLTISSLQSEDFAVYYCQQDYNSPWTFGGGTKVEIKR	fulfilled
anti-IL-12p40 hybrid antibody 1A6.8 (antibody, human IgG1, kappa, L234A L235A, V domains shown) VH: EVTLRESGPALVKPTQTLTLTCTFSGFSLSTSGMGVSWIRQPPGKALEWLAHIWWDGDNYYNPSLKSRLTISKDTSKNQVVLTMTNMDPVDTATYYCARRTRVNYAMDYWGQGTTVTVSS VL: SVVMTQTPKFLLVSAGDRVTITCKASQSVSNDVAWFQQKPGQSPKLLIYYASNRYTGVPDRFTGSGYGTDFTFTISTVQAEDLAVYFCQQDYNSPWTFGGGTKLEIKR	not fulfilled

Now look at this one.
Prompt: Confirm if Av. IC50 (nM) Cyno IL-12, PHA blast assay reported for the binder anti-IL-12p40 hybrid antibody 1A6.3 (antibody, human IgG1, kappa, L234A L235A, V domains shown) VH: EVTLKESGPVLVKPTETLTLTCTVSGFSLSTSGMGVSWIRQPPGKALEWLAHIWWDGDNYYNPSLKSRLTISKDTSKSQVVLTMTNMDPVDTATYYCARRTRVNYAMDYWGQGTTVTVSS VL: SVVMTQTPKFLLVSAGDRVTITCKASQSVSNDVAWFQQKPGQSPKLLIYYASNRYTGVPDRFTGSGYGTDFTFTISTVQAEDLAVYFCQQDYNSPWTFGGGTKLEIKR is 1 nM or above.
Completion: not fulfilled

// data source = patent US20140178332A1
